READOUT LABEL: melting point

Some entries whose results are on file:
COMPOUND	MEASURED RESULT
CC1(C)C(=O)C(C#N)=C[C@]2(C)C3=CC(=O)[C@@H]4[C@@H]5C[C@@](C)(C(=O)NCCCCCO)CC[C@]5(C)CC[C@@]4(C)[C@]3(C)CCC12 (stereo partly shown)	115.7 °C (dec.)
CC(C)(C)c1cc(CCCNC(=O)[C@@]2(C)CC[C@]3(C)CC[C@]4(C)[C@H](C(=O)C=C5[C@@]6(C)C=C(C#N)C(=O)C(C)(C)C6CC[C@]54C)[C@@H]3C2)cc(C(C)(C)C)c1O (stereo partly shown)	139 °C (dec.)
CC1(C)C(=O)C(C#N)=C[C@]2(C)C3=CC(=O)[C@@H]4[C@@H]5C[C@@](C)(C(=O)NCCCO)CC[C@]5(C)CC[C@@]4(C)[C@]3(C)CCC12 (stereo partly shown)	150.8 °C (dec.)

// fetch melting point given entry CC1(C)C(=O)C(C#N)=C[C@]2(C)C3=CC(=O)[C@@H]4[C@@H]5C[C@@](C)(C(=O)NCCO)CC[C@]5(C)CC[C@@]4(C)[C@]3(C)CCC12 (stereo partly shown)
152.7 °C (dec.)

// fetch melting point given entry CC1(C)C(=O)C(C#N)=C[C@]2(C)C3=CC(=O)[C@@H]4[C@@H]5C[C@@](C)(C(=O)Nc6cccnc6)CC[C@]5(C)CC[C@@]4(C)[C@]3(C)CCC12 (stereo partly shown)
250 °C

// fetch melting point given entry CC1(C)C(=O)C(C#N)=C[C@]2(C)C3=CC(=O)[C@@H]4[C@@H]5C[C@@](C)(C(=O)Nc6ccc(Br)cc6)CC[C@]5(C)CC[C@@]4(C)[C@]3(C)CCC12 (stereo partly shown)
283 °C (dec.)

// fetch melting point given entry COCCNC(=O)[C@@]1(C)CC[C@]2(C)CC[C@]3(C)[C@H](C(=O)C=C4[C@@]5(C)C=C(C#N)C(=O)C(C)(C)C5CC[C@]43C)[C@@H]2C1 (stereo partly shown)
115.9 °C (dec.)
